# target desc: T1, C-terminal GFP2-tagged β2-adrenergic receptor (β2-AR/GFP2) (human, UniProt P07550 1-413)
# T1 construct: human β2-adrenergic receptor; not shown: GFP2, C-terminal, kept
# protocol: MST; lysate of HEK-293 cells with β2-AR/GFP2 kept constant as fluorescent target, P3 titrated in 1:1 dilutions, in the presence of 10 µM isoproterenol; MST buffer with 0.05% Tween 20, 25 °C; EC50 from bound fraction
# test context: one partner purified
property measured: EC50 (µM)
Give just the numeric value; µM need not be written.

Problem: Which EC50 reading was recorded for the binder EDTAVYYCNANWDLLSD (17 aa stretch of the nanobody Nb71 (amino acid residues 88-104, includes CDR3), picked by computational peptide scanning; numbers count on Nb71; source: synthetic peptide, custom-synthesized at Biomatik Corporation) [P3, nanobody-derived peptide (NDP) of Nb71] ?
Result: 3.57
